Reference for the values: paper PMC6508934

biological target: mCST (W145L) (Mus musculus, UniProt Q61420, W145L); assay: SPA two-point CMP binding
Sequence (Q61420 whole entry W145L): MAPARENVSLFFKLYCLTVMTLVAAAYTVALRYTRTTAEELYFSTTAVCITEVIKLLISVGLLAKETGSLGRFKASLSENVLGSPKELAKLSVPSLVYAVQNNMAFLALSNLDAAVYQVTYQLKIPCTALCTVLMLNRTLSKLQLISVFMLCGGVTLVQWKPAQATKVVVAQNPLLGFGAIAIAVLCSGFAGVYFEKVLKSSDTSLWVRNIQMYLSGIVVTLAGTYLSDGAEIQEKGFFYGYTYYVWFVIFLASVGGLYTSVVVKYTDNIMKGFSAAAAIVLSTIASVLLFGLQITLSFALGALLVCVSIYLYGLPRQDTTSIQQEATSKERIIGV
Measurement Kind: Kd (nM)
Respond with the bare value in nM.

The compound Nc1ccn([C@@H]2O[C@H](COP(=O)(O)O)[C@@H](O)[C@H]2O)c(=O)n1 [CMP, Cytidine 5'-monophosphate] showed Kd equal to 800

###

target: UniProt Q61420; test: Intrinsic tryptophan fluorescence quenching assay
Measurement Kind: pKd
# pKd: negative log10 of molar concentration; output just the value

The compound Nc1ccn([C@@H]2O[C@H](COP(=O)(O)O)[C@@H](O)[C@H]2O)c(=O)n1 [CMP, Cytidine 5'-monophosphate] showed pKd equal to 5.54
